# Lookup of reported Kd keyed by entry
target: JAK2 JH1 (Homo sapiens); construct: JAK2 JH1; experiment: KINOMEscan binding, JAK2 JH1
Sequence (O60674 849-1124 limits assumed): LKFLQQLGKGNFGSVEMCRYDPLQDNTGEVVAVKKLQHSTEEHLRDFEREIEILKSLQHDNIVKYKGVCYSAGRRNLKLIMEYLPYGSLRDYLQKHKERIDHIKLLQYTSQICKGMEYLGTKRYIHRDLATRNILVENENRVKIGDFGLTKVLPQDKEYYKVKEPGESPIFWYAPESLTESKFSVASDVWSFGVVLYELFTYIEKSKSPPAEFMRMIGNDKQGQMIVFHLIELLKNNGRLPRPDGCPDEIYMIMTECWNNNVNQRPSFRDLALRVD

Completed entries (count: 3):
Incoming: Given the entry [2H]C1([2H])O[C@@H]2CCC[C@H]2NC(=O)c2cnc3c(NC)cc(nn23)Nc2cc1cc1c2nnn1C , what Kd was observed with JAK2 JH1 (Homo sapiens)?
Outgoing: 10 to 30 µM

Incoming: Request body: readout Kd, system JAK2 JH1 (Homo sapiens), query CNc1cc2nn3c(cnc13)C(=O)N[C@@H]1CCC[C@H]1OCc1cc(c3c(c1)nnn3C)N2 . Return the value.
Outgoing: ≥ 30 µM

Incoming: Form field: Kd recorded for [2H]C1([2H])O[C@H]2CCC[C@H]2NC(=O)c2cnc3c(NC)cc(nn23)Nc2cc1cc1c2nnn1C with JAK2 JH1 (Homo sapiens) (enter value)
Outgoing: ≥ 30 µM

More entries:
Incoming: API: value(readout=Kd, system=JAK2 JH1 (Homo sapiens)) for record CNc1cc2nn3c(cnc13)C(=O)N[C@@H]1CCC[C@@H]1OCc1cc(c3nnn(C)c3c1)N2
Outgoing: ≥ 30 µM

====

biological target: JAK2 JH1 (Homo sapiens); construct: JAK2 JH1; assay: KINOMEscan binding, JAK2 JH1
pKd: −log10 of the molar value.
outcomeMeasure: pKd

Below, 3 molecules whose answers are already recorded.
Incoming: API: value(readout=pKd, system=JAK2 JH1 (Homo sapiens)) for record CNc1cc2nn3c(cnc13)C(=O)N[C@@H]1CCC[C@@H]1OCc1cc(c3c(c1)nnn3C)N2 [Compound 6]
Outgoing: ≤ 4.52

Incoming: For the record CNc1cc2nn3c(cnc13)C(=O)N[C@@H]1CCC[C@@H]1OCc1cc(c3nn(C)nc3c1)N2 [Compound 7] , what value of pKd is listed for JAK2 JH1 (Homo sapiens)?
Outgoing: ≤ 4.52

Incoming: Record CNc1cc2nn3c(cnc13)C(=O)N[C@@H]1CCC[C@H]1OCc1cc(c3nn(C)nc3c1)N2 [Compound 4] : what is its pKd with JAK2 JH1 (Homo sapiens)?
Outgoing: 5.00 to 6.00

Then there is this molecule:
Incoming: I'm curious: which pKd was measured for CNc1cc2nn3c(cnc13)C(=O)N[C@@H]1CCC[C@H]1OCc1cc(c3nnn(C)c3c1)N2 [Compound 1] tested on JAK2 JH1 (Homo sapiens)?
Outgoing: ≤ 4.52

====

molecular target: JAK3 JH1 (Homo sapiens, UniProt P52333); construct: JAK3 JH1; experiment: KINOMEscan binding, JAK3 JH1
Sequence (P52333 822-1111 limits assumed): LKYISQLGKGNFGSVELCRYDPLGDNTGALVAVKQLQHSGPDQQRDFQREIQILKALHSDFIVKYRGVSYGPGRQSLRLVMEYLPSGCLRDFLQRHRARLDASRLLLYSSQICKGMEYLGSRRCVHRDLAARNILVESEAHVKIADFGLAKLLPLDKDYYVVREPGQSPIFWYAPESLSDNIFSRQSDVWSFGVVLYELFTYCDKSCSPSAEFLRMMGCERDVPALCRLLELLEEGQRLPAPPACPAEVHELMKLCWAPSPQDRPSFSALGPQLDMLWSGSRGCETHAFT
pKd: −log10 of the molar value.
Items are presented alongside their recorded pKd.

Worked cases, pKd given:
Incoming: Dear colleague, I am looking for the recorded pKd of the following compound: CNc1cc2nn3c(cnc13)C(=O)N[C@@H]1CCC[C@@H]1OCc1cc(c3nn(C)nc3c1)N2
Outgoing: ≤ 4.52

Incoming: Consider the compound shown here: CNc1cc2nn3c(cnc13)C(=O)N[C@@H]1CCC[C@@H]1OCc1cc(c3c(c1)nnn3C)N2 What is its recorded pKd?
Outgoing: ≤ 4.52

Incoming: Which pKd reading was recorded for the compound CNc1cc2nn3c(cnc13)C(=O)N[C@@H]1CCC[C@@H]1OCc1cc(c3nnn(C)c3c1)N2 ?
Outgoing: ≤ 4.52

Incoming: Given CNc1cc2nn3c(cnc13)C(=O)N[C@@H]1CCC[C@H]1OCc1cc(c3c(c1)nnn3C)N2 , state its recorded pKd.
Outgoing: ≤ 4.52

Incoming: Bench note: what pKd did [2H]C1([2H])O[C@@H]2CCC[C@H]2NC(=O)c2cnc3c(NC)cc(nn23)Nc2cc1cc1c2nnn1C show?
Outgoing: 5.00 to 6.00

Incoming: Recorded pKd of [2H]C1([2H])O[C@H]2CCC[C@H]2NC(=O)c2cnc3c(NC)cc(nn23)Nc2cc1cc1c2nnn1C , please.
Outgoing: 4.52 to 5.00

Incoming: Request the reported pKd associated with CNc1cc2nn3c(cnc13)C(=O)N[C@@H]1CCC[C@H]1OCc1cc(c3nn(C)nc3c1)N2
Outgoing: 4.52 to 5.00

Continuing:
Incoming: Look up pKd for this compound: CNc1cc2nn3c(cnc13)C(=O)N[C@@H]1CCC[C@H]1OCc1cc(c3nnn(C)c3c1)N2
Outgoing: 4.52 to 5.00
